target: Delta-type opioid receptor (Homo sapiens); experiment: Displacement of [3H]DPDPE from human delta opioid receptor expressed in mouse HN9.10 cells
Sequence (P41143 whole entry): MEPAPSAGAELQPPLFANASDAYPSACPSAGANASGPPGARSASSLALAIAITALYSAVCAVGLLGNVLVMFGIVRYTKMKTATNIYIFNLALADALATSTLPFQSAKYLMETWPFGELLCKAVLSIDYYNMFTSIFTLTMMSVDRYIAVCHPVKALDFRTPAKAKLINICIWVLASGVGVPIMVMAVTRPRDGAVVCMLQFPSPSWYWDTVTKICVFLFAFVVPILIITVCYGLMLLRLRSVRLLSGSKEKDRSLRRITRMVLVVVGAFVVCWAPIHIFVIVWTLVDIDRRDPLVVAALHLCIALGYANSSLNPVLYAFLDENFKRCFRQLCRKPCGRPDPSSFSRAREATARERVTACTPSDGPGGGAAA
For each record, check the reported Ki: if it is below 6 nM write y, else write n.

INSERT INTO measurements (molecule, test_system, group) VALUES
  ('CCCC[C@H](NC(=O)[C@H](Cc1c[nH]c2ccccc12)NC(=O)[C@H](CCCN=C(N)N)NC(=O)[C@@H](Cc1ccc2ccccc2c1)NC(=O)[C@H](Cc1cnc[nH]1)NC(=O)[C@H](Cc1ccccc1)NC(=O)[C@@H](C)NC(=O)[C@@H](N)Cc1c(C)cc(O)cc1C)C(=O)N[C@@H](CC(=O)O)C(=O)N[C@@H](Cc1ccccc1)C(N)=O', 'Delta-type opioid receptor (Homo sapiens)', 'y'),
  ('CCCC[C@H](NC(=O)[C@H](Cc1c[nH]c2ccccc12)NC(=O)[C@H](CCCNC(=N)N)NC(=O)[C@@H](Cc1ccccc1)NC(=O)[C@H](Cc1cnc[nH]1)NC(=O)[C@H](Cc1ccccc1)NC(=O)CNC(=O)[C@@H](C)NC(=O)[C@@H](N)Cc1ccc(O)cc1)C(=O)N[C@@H](CC(=O)O)C(=O)N[C@@H](Cc1ccccc1)C(N)=O', 'Delta-type opioid receptor (Homo sapiens)', 'n'),
  ('CCCC[C@H](NC(=O)[C@H](Cc1c[nH]c2ccccc12)NC(=O)[C@H](CCCN=C(N)N)NC(=O)[C@@H](Cc1ccc2ccccc2c1)NC(=O)[C@H](Cc1cnc[nH]1)NC(=O)[C@H]1Cc2ccccc2CN1C(=O)[C@@H](N)Cc1c(C)cc(O)cc1C)C(=O)N[C@@H](CC(=O)O)C(=O)N[C@@H](Cc1ccccc1)C(N)=O', 'Delta-type opioid receptor (Homo sapiens)', 'n'),
  ('N=C(N)NCCC[C@@H]1NC(=O)[C@H](Cc2ccc(Cl)cc2)NC(=O)[C@H](Cc2cnc[nH]2)NC(=O)CNC(=O)[C@H](NC(=O)[C@@H](N)Cc2ccc(O)cc2)CC(=O)NCCCC[C@@H](C(=O)N[C@@H](CC(=O)O)C(=O)N[C@H](Cc2ccccc2)C(N)=O)NC(=O)[C@H](Cc2cc3ccccc3[nH]2)NC1=O', 'Delta-type opioid receptor (Homo sapiens)', 'n');

// next entry
Ask: Please check: Ki for `CCCC[C@H](NC(=O)[C@H](Cc1c[nH]c2ccccc12)NC(=O)[C@H](CCCNC(=N)N)NC(=O)[C@@H](Cc1ccc2ccccc2c1)NC(=O)[C@H](Cc1cnc[nH]1)NC(=O)[C@H](Cc1ccccc1)NC(=O)[C@@H](C)NC(=O)[C@@H](N)Cc1ccc(O)cc1)C(=O)N[C@@H](CC(=O)O)C(=O)N[C@@H](Cc1ccccc1)C(N)=O` , strictly under 6 nM or not?
Result: n

* * *

target: Melanocortin receptor 4 (Homo sapiens, UniProt P32245); assay: Displacement of Eu-NDP-alphaMSH from human MC4 receptor expressed in human HEK293 cells
Sequence (P32245 whole entry): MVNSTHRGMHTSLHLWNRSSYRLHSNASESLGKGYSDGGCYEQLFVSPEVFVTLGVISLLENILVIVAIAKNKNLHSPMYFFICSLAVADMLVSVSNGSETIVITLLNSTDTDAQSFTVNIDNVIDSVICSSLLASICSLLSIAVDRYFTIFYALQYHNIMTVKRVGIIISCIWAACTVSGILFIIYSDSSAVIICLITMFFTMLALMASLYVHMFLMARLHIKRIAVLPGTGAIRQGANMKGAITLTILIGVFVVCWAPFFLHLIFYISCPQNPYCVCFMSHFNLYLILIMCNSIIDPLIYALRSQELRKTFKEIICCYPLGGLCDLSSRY
readout type: IC50 (nM)
Numbers only, in nM.

In the examples that follow, each entry is paired with its recorded IC50.
INSERT INTO measurements (compound, test_system, recorded_result) VALUES
  ('CCCC[C@H](NC(=O)[C@H](Cc1c[nH]c2ccccc12)NC(=O)[C@H](CCCNC(=N)N)NC(=O)[C@@H](Cc1ccc2ccccc2c1)NC(=O)[C@H](Cc1cnc[nH]1)NC(=O)[C@H](Cc1ccccc1)NC(=O)[C@@H](C)NC(=O)[C@@H](N)Cc1ccc(O)cc1)C(=O)N[C@@H](CC(=O)O)C(=O)N[C@@H](Cc1ccccc1)C(N)=O', 'Melanocortin receptor 4 (Homo sapiens, UniProt P32245)', 700),
  ('CCCC[C@H](NC(=O)[C@H](Cc1c[nH]c2ccccc12)NC(=O)[C@H](CCCN=C(N)N)NC(=O)[C@@H](Cc1ccc2ccccc2c1)NC(=O)[C@H](Cc1cnc[nH]1)NC(=O)[C@H]1Cc2ccccc2CN1C(=O)[C@@H](N)Cc1c(C)cc(O)cc1C)C(=O)N[C@@H](CC(=O)O)C(=O)N[C@@H](Cc1ccccc1)C(N)=O', 'Melanocortin receptor 4 (Homo sapiens, UniProt P32245)', 160);

Kindly consider the entry below.
Ask: // IC50 lookup, key: CCCC[C@H](NC(=O)[C@H](Cc1c[nH]c2ccccc12)NC(=O)[C@H](CCCNC(=N)N)NC(=O)[C@@H](Cc1ccc2ccccc2c1)NC(=O)[C@H](Cc1cnc[nH]1)NC(=O)[C@@H]1Cc2ccccc2CN1C(=O)C(N)Cc1c(C)cc(O)cc1C)C(=O)N[C@@H](CC(=O)O)C(=O)N[C@@H](Cc1ccccc1)C(N)=O (single isomer, unassigned)
Result: 230

* * *

biological target: Melanocortin receptor 4 (Homo sapiens, UniProt P32245); assay: Displacement of Eu-NDP-alphaMSH from human MC4 receptor expressed in human HEK293 cells
readout type: pIC50
Give bare numbers, as −log10 of the molar value.

A selection of reference data follows.
INSERT INTO measurements (smiles_string, test_system, recorded_result) VALUES
  ('Cc1cc(O)cc(C)c1C[C@H](N)C(=O)N1CC(=O)N[C@@H](Cc2cnc[nH]2)C(=O)N[C@H](Cc2ccc3ccccc3c2)C(=O)N[C@@H](CCCNC(=N)N)C(=O)N[C@@H](Cc2c[nH]c3ccccc23)C(=O)N[C@H](C(=O)N[C@@H](CC(=O)O)C(=O)N[C@@H](Cc2ccccc2)C(N)=O)CSSC[C@@H](N)C1=O', 'Melanocortin receptor 4 (Homo sapiens, UniProt P32245)', 6.36),
  ('CCCC[C@H](NC(=O)[C@H](Cc1c[nH]c2ccccc12)NC(=O)[C@H](CCCNC(=N)N)NC(=O)[C@@H](Cc1ccccc1)NC(=O)[C@H](Cc1cnc[nH]1)NC(=O)[C@H](Cc1ccccc1)NC(=O)CNC(=O)[C@@H](C)NC(=O)[C@@H](N)Cc1ccc(O)cc1)C(=O)N[C@@H](CC(=O)O)C(=O)N[C@@H](Cc1ccccc1)C(N)=O', 'Melanocortin receptor 4 (Homo sapiens, UniProt P32245)', 5.89),
  ('CCCC[C@H](NC(=O)[C@H](Cc1c[nH]c2ccccc12)NC(=O)[C@H](CCCNC(=N)N)NC(=O)[C@@H](Cc1ccc2ccccc2c1)NC(=O)[C@H](Cc1cnc[nH]1)NC(=O)[C@H](Cc1ccccc1)NC(=O)CNC(=O)[C@@H](C)NC(=O)[C@@H](N)Cc1c(C)cc(O)cc1C)C(=O)N[C@@H](CC(=O)O)C(=O)N[C@@H](Cc1ccccc1)C(N)=O', 'Melanocortin receptor 4 (Homo sapiens, UniProt P32245)', 6.80);

List pIC50 for every entry below, keeping the order given.
1. CCCC[C@H](NC(=O)[C@H](Cc1c[nH]c2ccccc12)NC(=O)[C@H](CCCN=C(N)N)NC(=O)[C@@H](Cc1ccc2ccccc2c1)NC(=O)[C@H](Cc1cnc[nH]1)NC(=O)[C@@H](N)Cc1ccccc1)C(N)=O
2. CCCC[C@H](NC(=O)[C@H](Cc1c[nH]c2ccccc12)NC(=O)[C@H](CCCNC(=N)N)NC(=O)[C@@H](Cc1ccc2ccccc2c1)NC(=O)[C@H](Cc1cnc[nH]1)NC(=O)[C@H](Cc1ccccc1)NC(=O)CNC(=O)[C@@H](C)NC(=O)[C@@H](N)Cc1ccc(O)cc1)C(=O)N[C@@H](CC(=O)O)C(=O)N[C@@H](Cc1ccccc1)C(N)=O
3. N=C(N)NCCC[C@@H]1NC(=O)[C@H](Cc2ccc(Cl)cc2)NC(=O)[C@H](Cc2cnc[nH]2)NC(=O)CNC(=O)[C@H](NC(=O)[C@@H](N)Cc2ccc(O)cc2)CC(=O)NCCCC[C@@H](C(=O)N[C@@H](CC(=O)O)C(=O)N[C@H](Cc2ccccc2)C(N)=O)NC(=O)[C@H](Cc2cc3ccccc3[nH]2)NC1=O
4. CCCC[C@H](NC(=O)[C@H](Cc1c[nH]c2ccccc12)NC(=O)[C@H](CCCN=C(N)N)NC(=O)[C@@H](Cc1ccc2ccccc2c1)NC(=O)[C@H](Cc1cnc[nH]1)NC(=O)[C@H](Cc1ccccc1)NC(=O)[C@@H](C)NC(=O)[C@@H](N)Cc1c(C)cc(O)cc1C)C(=O)N[C@@H](CC(=O)O)C(=O)N[C@@H](Cc1ccccc1)C(N)=O

Result:
1. 6.70
2. 6.59
3. 7.49
4. 6.30

* * *

target: Delta-type opioid receptor (Mus musculus, UniProt P32300); assay: Agonist activity at delta opioid receptor in mouse vas deferens assessed as inhibition of electrically-stimulated muscle contraction; type: functional, tissue-based
Sequence (P32300 whole entry): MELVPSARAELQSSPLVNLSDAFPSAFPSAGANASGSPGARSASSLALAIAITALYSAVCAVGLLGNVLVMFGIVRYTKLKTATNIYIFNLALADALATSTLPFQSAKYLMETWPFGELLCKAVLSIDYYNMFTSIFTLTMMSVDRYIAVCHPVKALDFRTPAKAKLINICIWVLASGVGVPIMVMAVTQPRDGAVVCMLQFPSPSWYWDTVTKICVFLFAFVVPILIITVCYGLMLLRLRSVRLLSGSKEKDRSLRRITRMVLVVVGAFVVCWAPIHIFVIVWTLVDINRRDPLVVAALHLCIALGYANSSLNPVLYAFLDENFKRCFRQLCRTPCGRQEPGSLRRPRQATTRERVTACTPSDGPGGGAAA
Consider the following molecules; for each one, report its pIC50.
Give bare numbers, as −log10 of the molar value.

INSERT INTO results (smiles_string, recorded_result) VALUES
  ('CCCC[C@H](NC(=O)[C@H](Cc1c[nH]c2ccccc12)NC(=O)[C@H](CCCN=C(N)N)NC(=O)[C@@H](Cc1ccc2ccccc2c1)NC(=O)[C@H](Cc1cnc[nH]1)NC(=O)[C@H](Cc1ccccc1)NC(=O)[C@@H](C)NC(=O)[C@@H](N)Cc1c(C)cc(O)cc1C)C(=O)N[C@@H](CC(=O)O)C(=O)N[C@@H](Cc1ccccc1)C(N)=O', 6.96);

// input: 3 molecules below; output: pIC50 for each
1. CCCC[C@H](NC(=O)[C@H](Cc1c[nH]c2ccccc12)NC(=O)[C@H](CCCNC(=N)N)NC(=O)[C@@H](Cc1ccc2ccccc2c1)NC(=O)[C@H](Cc1cnc[nH]1)NC(=O)[C@H](Cc1ccccc1)NC(=O)CNC(=O)[C@@H](C)NC(=O)[C@@H](N)Cc1c(C)cc(O)cc1C)C(=O)N[C@@H](CC(=O)O)C(=O)N[C@@H](Cc1ccccc1)C(N)=O
2. CCCC[C@H](NC(=O)[C@H](Cc1c[nH]c2ccccc12)NC(=O)[C@H](CCCNC(=N)N)NC(=O)[C@@H](Cc1ccccc1)NC(=O)[C@H](Cc1cnc[nH]1)NC(=O)[C@H](Cc1ccccc1)NC(=O)CNC(=O)[C@@H](C)NC(=O)[C@@H](N)Cc1ccc(O)cc1)C(=O)N[C@@H](CC(=O)O)C(=O)N[C@@H](Cc1ccccc1)C(N)=O
3. CCCC[C@H](NC(=O)[C@H](Cc1c[nH]c2ccccc12)NC(=O)[C@H](CCCNC(=N)N)NC(=O)[C@@H](Cc1ccc2ccccc2c1)NC(=O)[C@H](Cc1cnc[nH]1)NC(=O)[C@H](Cc1ccccc1)NC(=O)[C@@H](C)NC(=O)[C@@H](N)Cc1ccc(O)cc1)C(=O)N[C@@H](CC(=O)O)C(=O)N[C@@H](Cc1ccccc1)C(N)=O

Result:
1: 7.96; 2: 7.40; 3: 6.43
